Listed here are compounds together with their documented TGI.
test system: IGROV1 ovarian; experiment: NCI tumour cell line growth inhibition, 48 h

Prompt: // query TGI value for entry CCOC(=O)c1cc2c(n1Cc1cc(OC)c(OC)c(OC)c1)-c1oncc1CCC2
Completion: 5.36 µM

Prompt: // query TGI value for entry CCOC(=O)c1cccc(NC(=O)CI)c1
Completion: 1.02 µM

Prompt: // query TGI value for entry CNC1(C(=O)O)CC1
Completion: > 100 µM

Prompt: // query TGI value for entry CC1=C(C)SC(=C2Sc3nc(O)[nH]c(=O)c3S2)S1
Completion: > 100 µM

Prompt: // query TGI value for entry COc1ccc(CC2(Cc3ccc(OC)cc3)CCOC2=O)cc1
Completion: > 100 µM

Prompt: // query TGI value for entry Cc1[nH]c(=O)nc(NNCc2ccc(Cl)cc2)c1C(=O)Nc1ccc(Cl)cc1
Completion: > 100 µM

====

tested on: COLO 205 colon; assay: NCI tumour cell line growth inhibition, 48 h
Listed here are compounds together with their documented TGI.

# compound, TGI
data = [
    ("COc1cc([N+](=O)[O-])c(OC)cc1-c1nc2sccn2c1/C=N/N=C(N)N", "> 100 µM"),
    ("CCOC(=O)c1c(NC(=S)Nc2ccccc2)sc2c1CCOC2", "> 100 µM"),
    ("O=C1/C(=N\\O)S(=O)(=O)c2ccccc21", "> 100 µM"),
    ("O=[N+]([O-])c1ccc(NNN=Nc2ccc(-c3nc4ccccc4s3)cc2)c([N+](=O)[O-])c1", "31.5 µM"),
    ("COc1cc2c(c(OC)c1OC)-c1ccc(SC)cc1C(O)CC2 (stereo unspecified)", "0.179 µM"),
    ("O=C1CC(NCc2ccccc2)c2c(Cl)sc(Cl)c21 (stereo unspecified)", "56 µM"),
]

Could you now look at the following compound, please?
Prompt: // query TGI value for entry COc1ccc(CC(=O)c2ccc(O)cc2O)cc1
Completion: > 100 µM

====

system: T-47D breast; experiment: NCI tumour cell line growth inhibition, 48 h
Listed here are compounds together with their documented TGI.

# compound, obs.value
rows = [
    ("Cc1ccc(Nc2nc3c(=O)n(C)c(=O)n(C)c3nc2Nc2ccc(C)cc2)cc1", "30.3 µM"),
    ("COc1cc([N+](=O)[O-])c(OC)cc1-c1nc2sccn2c1/C=N/N=C(N)N", "> 100 µM"),
]

Prompt: // query TGI value for entry OC1CSc2nc3ccccc3n2C1 (centres undefined)
Completion: > 100 µM

Prompt: // query TGI value for entry Cc1nc2sccn2c1/C=C1/C(=O)Nc2cccc(Cl)c21
Completion: > 100 µM

====

test system: OVCAR-8 ovarian; assay: NCI tumour cell line growth inhibition, 48 h
measurement.name: TGI

Examples from the recorded data:
# molecule, measurement.name, obs.value
data = [
    ("N#CSCc1ccc(Cl)c(CSC#N)c1", "TGI", "> 73.6 µM"),
    ("CC(=O)CC1=C(OC(C)C)C2(OCCO2)C1O (stereo not drawn)", "TGI", "> 100 µM"),
    ("CCOC(=O)C1CCCCN1C(=O)c1ccc(Nc2cnc3cc(C(F)(F)F)ccc3n2)cc1 (stereo not drawn)", "TGI", "> 100 µM"),
    ("COc1ccc(NC(=S)c2ccoc2C)cc1CC(=O)OC(C)C", "TGI", "> 100 µM"),
    ("O=[N+]([O-])c1ccc(NNN=Nc2ccc(-c3nc4ccccc4s3)cc2)c([N+](=O)[O-])c1", "TGI", "72.5 µM"),
    ("O=C(OCCNC(=O)N1CC1)OCCNC(=O)N1CC1", "TGI", "> 10 µM"),
    ("CC(=O)Oc1ccc2c3c1O[C@H]1[C@H](O)CC[C@@]4(O)[C@@H](C2)N(C)CC[C@]314", "TGI", "> 100 µM"),
    ("c1ccc(CSC2(SCc3ccccc3)CCCCC2)cc1", "TGI", "> 10 µM"),
]

Prompt: // query TGI value for entry COC(=N)c1c(N)[n+]([O-])c2ccc(F)cc2[n+]1[O-]
Completion: > 100 µM

Prompt: // query TGI value for entry O=C1CC(NCc2ccccc2)c2c(Cl)sc(Cl)c21 (stereo not drawn)
Completion: 48.5 µM

Prompt: // query TGI value for entry Cc1n(Cc2ccccc2)nc2sc(N)n[n+]12
Completion: > 100 µM

Prompt: // query TGI value for entry COc1ccc(/C=C2\C[C@H]3[C@@H]4CCC5=CC(=O)CC[C@]5(C)[C@H]4CC[C@]3(C)C2=O)cc1OC
Completion: > 100 µM

Prompt: // query TGI value for entry CCOC(=O)NN(C(=O)OCC)c1c(C)cc(C)cc1C
Completion: > 100 µM

Prompt: // query TGI value for entry Cc1ccc(C(=O)NC2CCC2)cc1-c1ccc(C(=O)NCC2CC2)cc1
Completion: > 25 µM

Prompt: // query TGI value for entry Cc1nn(C)c(COc2ccc(N3CCN(S(=O)(=O)N(C)C)CC3)cc2)c1-c1cccc2c(CCCOc3cccc4ccccc34)c(C(=O)O)n(CCN3CCOCC3)c12
Completion: 14.7 µM

Prompt: // query TGI value for entry CCCCCCCCCCCCCCCCCCOCC(O)COP(=O)(O)OCC1OC(n2ccc(N)nc2=O)C(O)C1O (stereo not drawn)
Completion: 24.3 µM

Prompt: // query TGI value for entry C[C@]12CC[C@@H]3c4ccc(O)cc4CC[C@H]3[C@@H]1Cc1cnc(N)nc12
Completion: > 100 µM

Prompt: // query TGI value for entry COC(=O)c1cc2ccccc2c2c3c(ccc12)OCO3
Completion: > 1000 µM

Prompt: // query TGI value for entry NS(=O)(=O)c1ccc(/C=C/c2ccc(O)cc2)cc1
Completion: 31.9 µM

Prompt: // query TGI value for entry CNC(=O)OCc1c2ccncc2c(C)c2c1[nH]c1ccc(OC)cc12
Completion: > 100 µM

Prompt: // query TGI value for entry COc1cccc(NC(=O)CC(=O)N2N=C(N3c4ccccc4Sc4ccccc43)CC2c2ccccc2)c1 (stereo not drawn)
Completion: > 100 µM

Prompt: // query TGI value for entry N#Cc1c(O)c(/C=N/c2ncccn2)c(=O)n2c1[nH]c1ccccc12
Completion: > 100 µM

Prompt: // query TGI value for entry O=C(NNC(=O)c1csc(NC(=S)NC2CCCCC2)n1)c1ccccc1
Completion: 59.2 µM

Prompt: // query TGI value for entry CN(C)C(=O)c1ccc([N+](=O)[O-])cc1
Completion: > 100 µM

Prompt: // query TGI value for entry CC(=O)N(C(C)=O)c1cc2c3c(c1)CCCN3CCC2
Completion: > 10 µM

Prompt: // query TGI value for entry CN(C)CC1CCC2=C(C1=O)C(c1ccc(Cl)c(Cl)c1)C1=C(CCC(CN(C)C)C1=O)O2 (stereo not drawn)
Completion: 16 µM

Prompt: // query TGI value for entry CN(C)c1ccc(C=C2C(=O)NC(=S)NC2=O)c2ccccc12
Completion: 77 µM

Prompt: // query TGI value for entry COc1cc(OC)c(C(=O)/C=C/c2cccc(C#N)c2)c(OC)c1
Completion: 6.51 µM

These measurements were taken from PubChem BioAssay (NCI).
